Listed here are sequences together with their documented protein stability index.
- experimental details: protein stability index of a GFP-peptide fusion (GPS, HEK-293T) (PSI 1-6); higher = more stable;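 further: 24-mer peptide tiles fused after GFP, lentivirally expressed, FACS-sorted into six equal bins by GFP/DsRed ratio, decoded by Illumina sequencing, PSI is the read-weighted mean bin number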
- assay context: treatment: DMSO; c terminus: a fixed tail appended

Some solved entries appear below for comparison.
INSERT INTO measurements (polymer_sequence, result) VALUES
  ('FTQPLLPAFTVWCGSFQVTTGLQV [FSD1]', 3),
  ('CSCLSDILRFIYSGAFQWEELEED [RHOBTB3]', 2.35),
  ('TADRIIRVYDGREILTCGRDGEPE [RBBP5]', 4.55),
  ('LIDEKVLILHGGVSDITDLELLDK [PPEF2]', 3.14),
  ('ENRVSTLRVSPDGTAFCSGSWDHT [GNB5]', 3.95);

In: Dear colleague, I am looking for the recorded protein stability index of the following sequence: HMEDPRRAGKMLMTLPLLRQTSTK [ESRRG]
Out: 3.63

In: Dear colleague, I am looking for the recorded protein stability index of the following sequence: KLQDVFEMRFAKMPDEPVEAPALP [BRD3]
Out: 3.49
